Ref: patent US7294646B2

Let's look at some compounds and their measured pIC50.
# assay target: Maxi-K channel (alpha and beta1 subunits) (Homo sapiens, UniProt Q12791)
# Sequence (Q12791 whole entry): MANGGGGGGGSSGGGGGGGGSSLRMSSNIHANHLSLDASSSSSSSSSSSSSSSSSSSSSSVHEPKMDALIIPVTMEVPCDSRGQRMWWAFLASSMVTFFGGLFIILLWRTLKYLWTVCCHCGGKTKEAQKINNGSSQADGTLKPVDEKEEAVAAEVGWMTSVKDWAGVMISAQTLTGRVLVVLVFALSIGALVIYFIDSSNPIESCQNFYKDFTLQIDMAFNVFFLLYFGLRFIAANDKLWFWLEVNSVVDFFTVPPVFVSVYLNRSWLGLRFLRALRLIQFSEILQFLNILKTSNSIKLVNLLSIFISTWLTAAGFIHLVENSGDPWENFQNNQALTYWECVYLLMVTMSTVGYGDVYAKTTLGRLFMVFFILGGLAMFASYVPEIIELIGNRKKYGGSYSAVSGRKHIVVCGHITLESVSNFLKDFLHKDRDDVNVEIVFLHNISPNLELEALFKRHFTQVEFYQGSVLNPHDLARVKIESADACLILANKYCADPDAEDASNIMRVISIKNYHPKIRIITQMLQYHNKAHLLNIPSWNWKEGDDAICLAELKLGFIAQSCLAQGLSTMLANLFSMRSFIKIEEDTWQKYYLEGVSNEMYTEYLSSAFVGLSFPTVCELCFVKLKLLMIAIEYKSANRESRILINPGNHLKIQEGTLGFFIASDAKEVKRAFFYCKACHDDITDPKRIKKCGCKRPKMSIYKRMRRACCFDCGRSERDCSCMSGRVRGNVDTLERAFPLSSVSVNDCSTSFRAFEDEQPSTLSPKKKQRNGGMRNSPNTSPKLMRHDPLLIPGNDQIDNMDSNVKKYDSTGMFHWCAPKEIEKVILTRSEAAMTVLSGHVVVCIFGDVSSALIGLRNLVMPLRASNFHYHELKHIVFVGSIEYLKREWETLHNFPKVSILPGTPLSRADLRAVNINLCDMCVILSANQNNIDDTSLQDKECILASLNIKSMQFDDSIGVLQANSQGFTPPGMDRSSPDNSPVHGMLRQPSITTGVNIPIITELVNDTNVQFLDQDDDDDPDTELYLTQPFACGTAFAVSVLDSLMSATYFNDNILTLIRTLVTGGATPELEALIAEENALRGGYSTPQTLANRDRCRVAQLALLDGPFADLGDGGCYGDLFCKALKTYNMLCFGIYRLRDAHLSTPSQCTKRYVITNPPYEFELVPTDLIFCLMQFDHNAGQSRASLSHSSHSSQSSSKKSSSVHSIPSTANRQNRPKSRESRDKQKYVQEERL
# Sequence (Q16558 whole entry partner): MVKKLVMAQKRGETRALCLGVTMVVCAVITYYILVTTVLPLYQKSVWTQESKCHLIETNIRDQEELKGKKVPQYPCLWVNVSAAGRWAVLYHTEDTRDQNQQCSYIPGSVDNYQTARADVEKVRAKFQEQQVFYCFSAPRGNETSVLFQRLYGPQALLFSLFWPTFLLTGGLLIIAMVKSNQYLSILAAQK
# assay: FRET (VIPR) membrane potential assay in HEK-293 cells transfected with alpha and beta1 subunits of the maxi-K channel
pIC50: −log10 of the molar value.

>>> result("CC(C)[C@@H](C(=O)O[C@H]1C[C@H]2Cc3c([nH]c4ccccc34)[C@]2(C)[C@@]2(C)CC[C@@]34O[C@@H](C(=O)C=C3[C@]12O)C(C)(C)O4)N(C)C [Ib]")
"≥ 7.00"

Specify pIC50 for CC(C)C[C@@H](C(=O)O[C@H]1C[C@H]2Cc3c([nH]c4ccccc34)[C@]2(C)[C@@]2(C)CC[C@@]34O[C@@H](C(=O)C=C3[C@]12O)C(C)(C)O4)N(C)C [Compound Ia] and stop.
≥ 7.00
